tested on: HOP-92; assay: NCI tumour cell line growth inhibition, 48 h
Activity calls are given as the source filed them. No stated cut-off is given here; in the data, active = GI50 up to about 1.1 µM and inactive = higher.
Tick one outcome: active, inactive

Past entries and their recorded results:
>>> print(df.to_string())
                                   compound  qualitative_label
0  CC1CCCOc2ccc(cc2)/C=N\c2ccc(cc2)CCc2ccc(cc2)/N=C\c2ccc(cc2)OCCC1           inactive
1  CC(C)(C)OC(=O)c1ccc(NCC2=CC(=O)C=CC2=O)cc1           inactive

[in] Call for entry OC1[C@H](O)CN(OCc2ccccc2)C[C@@H]1O (stereo partly specified) :
[out] inactive

[in] Hi team, can someone confirm the assay call for Clc1ccc(COC(Cn2ccnc2)c2ccc(Cl)cc2Cl)cc1 (stereo unspecified) [ECONAZOLE] ?
[out] inactive

====

system: KM12; assay: NCI tumour cell line growth inhibition, 48 h
Calls of active or inactive are those of the source. Rule as the data show it: active = GI50 up to about 1.1 µM and inactive = higher.
Return exactly one item of active, inactive

COMPOUND	SYSTEM NAME	QUALITATIVE LABEL
CC1(C)CCCCCCCCCC(C)(CCCCCCCCCCCCO)C1=O (stereo not given)	KM12	inactive
CN(C)CCCN1c2ccc(O)cc2Sc2ccc(Cl)cc21 [7-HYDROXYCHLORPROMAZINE]	KM12	inactive
N#CC(C#N)=C(N)/C(C#N)=C/c1ccc2ccccc2n1	KM12	inactive
CNC1=C(C)C(=O)C2=C(C1=O)C(COC(N)=O)C1(OC)C3NC3CN21 (stereo not given)	KM12	active
CCC(C(=O)c1cccs1)C(O)(C(F)(F)F)C(F)(F)F (stereo not given)	KM12	inactive

[in] Give the logged outcome of this assay for the following compound: Cc1cccc(C)c1NC(=O)C(=O)C(C#N)c1ccccc1 (stereo not given)
[out] inactive

[in] For `Cc1n[nH]c(=O)n1N1C(=O)c2ccccc2C1=O` , what call appears in the results of this test?
[out] inactive

[in] Hello, I am checking results. What call was entered for `Cc1ccc2c(c1)C(=O)/C(=C\c1ccccc1)CCS2(=O)=O` ?
[out] inactive

====

tested on: CAKI-1; test: NCI tumour cell line growth inhibition, 48 h
The source made the active and inactive calls. No stated cut-off is given here; in the data, active = GI50 up to about 1.1 µM and inactive = higher.
Choose one outcome from this list and give only that: active, inactive

MOLECULE	QUALITATIVE LABEL
COC(=O)C(=O)C(C(C)=O)C(=O)NCc1ccc(OC)c(OC)c1 (stereo unspecified)	inactive

[in] // return assay outcome for `O=[N+]([O-])c1cc(/N=N/c2c(O)ccc3cc(S(=O)(=O)O)ccc23)c(O)c([N+](=O)[O-])c1`
[out] inactive

[in] Identify the outcome logged in this assay for the molecule shown: `CC(=O)OC[C@@H]1[C@H]2CC[C@]3(C)[C@@H](OC(C)=O)CC[C@H]3[C@@H]2CC[C@H]1C1(C)SCCS1`
[out] inactive

[in] Status in this test for `CN(C)CCn1c(=O)c2ccc(NCCNCCO)c3c(=O)c4cc(O)ccc4n(c1=O)c23` ?
[out] active

[in] Please let me know the test result on file for `COc1ccccc1-c1cc(=O)c2ccc(OC)c(OC)c2o1` .
[out] inactive

====

system: RPMI-8226; test: NCI tumour cell line growth inhibition, 48 h
Active and inactive are the calls of the source. Cut-off read from the data, not from the text of the source: active = GI50 up to about 1.1 µM and inactive = higher.
Could you please pick one outcome from this set? 1 for active, 0 for inactive

Use the examples below as a reference point.
MOLECULE	QUALITATIVE LABEL
CC(C)CNP(=O)(NCC(C)C)Oc1ccc(CC(NC(=O)OCc2ccccc2)C(=O)OCc2ccccc2)cc1 (centres undefined)	0
COC1=C2CC(C)CC(OC)C(O)C(C)/C=C(\C)C(OC(N)=O)C(OC)/C=C\C=C(/C)C(=O)NC(=C(/C=N/C(C)(C)C)C1=O)C2=O (centres undefined)	1
CC(C)Oc1cccc(N2C(NCCc3c[nH]c4ccccc34)=Nc3ccncc3S2(=O)=O)c1	0

Note: attention shifts to another entry.
[in] Fill in: this test's call for `CCOc1ccccc1N1C(=O)C(=O)C(c2nc3ccccc3s2)C(=O)C1=O` is ___
[out] 0
